Numbers sourced from ChEMBL document CHEMBL4382269.

Give IC50 for every item shown.
# system_under_test: Phosphatidylinositol 4,5-bisphosphate 3-kinase catalytic subunit gamma isoform (Homo sapiens)
# Sequence (P48736 whole entry, canonical isoform): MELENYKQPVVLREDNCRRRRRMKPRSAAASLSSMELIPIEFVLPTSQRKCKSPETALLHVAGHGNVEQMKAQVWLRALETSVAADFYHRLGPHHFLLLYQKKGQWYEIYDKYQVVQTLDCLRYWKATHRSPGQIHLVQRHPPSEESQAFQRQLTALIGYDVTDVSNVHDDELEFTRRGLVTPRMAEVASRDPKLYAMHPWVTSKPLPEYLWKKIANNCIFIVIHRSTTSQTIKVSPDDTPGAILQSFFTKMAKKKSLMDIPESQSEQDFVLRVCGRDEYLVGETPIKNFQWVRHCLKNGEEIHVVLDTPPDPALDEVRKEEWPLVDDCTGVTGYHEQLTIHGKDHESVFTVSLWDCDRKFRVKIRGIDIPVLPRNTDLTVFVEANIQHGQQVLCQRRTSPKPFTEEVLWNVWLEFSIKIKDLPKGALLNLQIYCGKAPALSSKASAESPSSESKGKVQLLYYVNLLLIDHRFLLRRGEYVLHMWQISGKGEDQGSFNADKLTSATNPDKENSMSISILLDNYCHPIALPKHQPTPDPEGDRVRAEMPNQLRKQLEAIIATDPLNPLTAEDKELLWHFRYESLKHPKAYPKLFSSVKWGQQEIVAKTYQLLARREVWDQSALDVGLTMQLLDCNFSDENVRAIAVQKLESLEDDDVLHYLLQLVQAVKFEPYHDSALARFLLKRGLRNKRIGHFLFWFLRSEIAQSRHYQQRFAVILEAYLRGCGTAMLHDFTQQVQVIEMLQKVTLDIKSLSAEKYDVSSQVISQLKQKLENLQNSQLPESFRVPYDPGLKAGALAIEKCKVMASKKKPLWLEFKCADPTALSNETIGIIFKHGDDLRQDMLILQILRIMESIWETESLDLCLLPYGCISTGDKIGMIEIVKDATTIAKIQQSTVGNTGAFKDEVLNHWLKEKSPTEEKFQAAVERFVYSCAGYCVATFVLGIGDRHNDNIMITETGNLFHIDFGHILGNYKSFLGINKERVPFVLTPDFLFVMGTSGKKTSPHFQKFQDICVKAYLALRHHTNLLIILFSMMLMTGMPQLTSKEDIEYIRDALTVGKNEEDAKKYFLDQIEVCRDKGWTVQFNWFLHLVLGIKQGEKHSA
# test: Inhibition of PI3Kgamma (unknown origin) using PIP2 as substrate preincubated for 15 mins followed by substrate addition measured after 60 mins by HTRF method
Numbers only, in nM.

Consider the worked cases shown below.
>>> print(df.to_string())
                            smiles_notation  result_unit  value_reported
0       CS(=O)(=O)Nc1cc(-c2cnc(N)nc2)cnc1Cl           nM             200
1          CS(=O)(=O)Nc1cc(-c2ccncc2)cnc1Cl           nM            3980
2         c1cc(-c2ccc3ccncc3c2)c2cc[nH]c2c1           nM           15800
3     c1cc(-c2nnc(CN3CCOCC3)o2)c2cn[nH]c2c1           nM           25100
4  COc1ncc(C2=CCOCC2)cc1NS(=O)(=O)c1cn(Cc2ccccc2)c(C)n1           nM            1000

Kindly give each listed record's IC50.
1. CS(=O)(=O)Nc1cc(-c2ccc3ccncc3c2)cnc1Cl
2. O=S(=O)(Nc1cc(C2=CCOCC2)cnc1Cl)c1ccccc1
3. COc1ncc(-c2cc(-c3ncc(CN4C[C@@H](C)O[C@@H](C)C4)o3)c3cn[nH]c3c2)cc1NS(C)(=O)=O
4. CS(=O)(=O)Nc1cc(-c2ccc3cn[nH]c3c2)cnc1Cl
5. O=S(=O)(Nc1cc(-c2ccccc2)cnc1Cl)c1ccccc1

Response line:
794
501
316
2510
12600
